Cited source for all entries: ChEMBL document CHEMBL1201862

- Tested on: BT-549
- method.summary: NCI tumour cell line growth inhibition, 48 h
Activity calls are given as the source filed them. Rule as the data show it: active = GI50 up to about 1.1 µM and inactive = higher.
Choose the fitting class; nothing outside active, inactive is accepted.

Consider the following illustrative entries.
[[record]]
molecule = "COc1cc2nc(-c3cccs3)nc(Nc3ccccc3C(=O)NN)c2cc1OC"
category = "inactive"

[[record]]
molecule = "CCOc1ccc(C(=O)/C=C2/Nc3ccccc3N/C2=C/C(=O)c2ccc(OCC)cc2)cc1"
category = "inactive"

[[record]]
molecule = "COc1ccc(C(C)NNC(=O)c2ccncc2)cc1F (stereo not drawn)"
category = "inactive"

[[record]]
molecule = "Cc1c[nH]c2c(O)cc3c(c12)[C@H](CCl)CN3C(=O)c1cc2cc(NC(=O)Nc3ccc4[nH]c(C(=O)N5C[C@@H](CCl)c6c5cc(O)c5[nH]cc(C)c65)cc4c3)ccc2[nH]1"
category = "inactive"

[[record]]
molecule = "CC(C)NC(=O)OCc1c(COC(=O)NC(C)C)n(C)c2c1ccc1sccc12"
category = "inactive"

[[record]]
molecule = "CCCCCCCCCCCC[C@H](O)[C@H]1CC[C@H]([C@H](O)CCCC[C@H](O)CCCCC[C@@H](O)CC2=C[C@H](C)OC2=O)O1"
category = "active"


Returns: the outcome recorded for CN(C)CCn1c(=O)c2ccc3c4c(nn3CCN(C)C)c3cc(N)ccc3n(c1=O)c24 in this assay.
active

Returns: the outcome recorded for OC1(c2ccccc2)CSC2=Nc3ccccc3C3CCN1N23 (stereo not drawn) in this assay.
inactive
